Biological target: p38a (Homo sapiens, UniProt Q16539)
Construct: Nanosyn (contract laboratory that ran the panel)
Sequence (Q16539 whole entry): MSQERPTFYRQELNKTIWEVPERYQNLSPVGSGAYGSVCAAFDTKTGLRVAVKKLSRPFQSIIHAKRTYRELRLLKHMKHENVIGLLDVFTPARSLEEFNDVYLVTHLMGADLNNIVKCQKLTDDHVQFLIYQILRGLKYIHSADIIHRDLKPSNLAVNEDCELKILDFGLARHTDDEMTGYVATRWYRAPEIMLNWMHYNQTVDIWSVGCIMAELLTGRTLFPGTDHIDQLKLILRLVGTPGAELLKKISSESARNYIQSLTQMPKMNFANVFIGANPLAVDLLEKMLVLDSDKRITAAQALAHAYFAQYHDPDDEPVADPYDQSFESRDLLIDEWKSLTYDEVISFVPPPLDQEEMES
Test: Kinase panel enzymatic inhibition assay (Nanosyn)
Type: biochemical
Conditions: compound 5 μM; ATP at Km; 30-minute pre-incubation
RECORDED ENDPOINT: inhibition at 5 µM

Recorded inhibition at 5 µM, per entry:
>>> result("CCOC(=O)Nc1cn2nc(Nc3cc(NC(=O)c4cc(S(C)(=O)=O)n(-c5ccc(F)cc5)n4)ccc3C)ccc2n1 [Ex15]")
"≥ 95%"
>>> result("Cc1ccc(NC(=O)c2cc(S(C)(=O)=O)n(-c3ccc(F)cc3)n2)cc1-c1cc(OCCO)nc(N2CCOCC2)c1 [Ex9]")
"< 79%"
>>> result("Cc1ccc(NC(=O)c2cc(S(C)(=O)=O)n(-c3ccc(F)cc3)n2)cc1-c1cc(N2CCOCC2)c(=O)n(C)c1 [Ex12]")
"< 79%"
>>> result("Cc1ccc(NC(=O)c2cc(S(C)(=O)=O)n(-c3ccc(F)cc3)n2)cc1Nc1nccc(-c2cccnc2N)n1 [Ex13]")
"< 79%"
>>> result("CNC(=O)c1cc(Oc2ccc(NC(=O)c3cc(S(C)(=O)=O)n(-c4ccc(F)cc4)n3)c(F)c2)ccn1 [Ex17]")
"< 79%"
>>> result("Cc1ccc(NC(=O)c2cc([S+](C)[O-])n(-c3ccc(F)cc3)n2)cc1C#Cc1cnc2cccnn12 (centres unmarked) [Ex6]")
"90 to 94%"
>>> result("Cc1ccc(NC(=O)c2cc([S+](C)[O-])n(-c3ccc(F)cc3)n2)cc1-c1cc(N2CCOCC2)c(=O)n(C)c1 (centres unmarked) [Ex11]")
"≥ 95%"
>>> result("Cc1ccc(NC(=O)c2cc([S+](C)[O-])n(-c3ccc(F)cc3)n2)cc1-c1cc(OCCO)nc(N2CCOCC2)c1 (centres unmarked) [Ex10]")
"< 79%"
>>> result("Cc1ccc(NC(=O)c2cc(S(C)(=O)=O)n(-c3ccc(F)cc3)n2)cc1Nc1ccc2ncn(C)c(=O)c2c1 [Ex4]")
"80 to 89%"
>>> result("Cc1ccc(NC(=O)c2cc(S(C)(=O)=O)n(-c3ccc(F)cc3)n2)cc1C#Cc1cnc2cccnn12 [Ex14]")
"< 79%"

The compound identified as CCOC(=O)Nc1cn2nc(Nc3cc(NC(=O)c4cc([S+](C)[O-])n(-c5ccc(F)cc5)n4)ccc3C)ccc2n1 (centres unmarked) [Ex18] registered its inhibition at 5 µM at ≥ 95%

The compound identified as CSc1cc(C(=O)Nc2cc(Oc3ccnc(C(=O)NC4CNC4)c3)ccc2F)nn1-c1ccc(F)cc1 [Ex8] registered its inhibition at 5 µM at < 79%

The compound identified as CNC(=O)c1cc(Oc2ccc(F)c(NC(=O)c3cc([S+](C)[O-])n(-c4ccc(F)cc4)n3)c2)ccn1 (centres unmarked) [Ex7] registered its inhibition at 5 µM at < 79%

The compound identified as Cc1ccc(NC(=O)c2cc([S+](C)[O-])n(-c3ccc(F)cc3)n2)cc1Nc1ccc2ncn(C)c(=O)c2c1 (centres unmarked) [Ex5] registered its inhibition at 5 µM at ≥ 95%

###

Biological target: PDGFRa (Homo sapiens)
Construct: Nanosyn (contract laboratory that ran the panel)
Sequence (P16234 24-1089): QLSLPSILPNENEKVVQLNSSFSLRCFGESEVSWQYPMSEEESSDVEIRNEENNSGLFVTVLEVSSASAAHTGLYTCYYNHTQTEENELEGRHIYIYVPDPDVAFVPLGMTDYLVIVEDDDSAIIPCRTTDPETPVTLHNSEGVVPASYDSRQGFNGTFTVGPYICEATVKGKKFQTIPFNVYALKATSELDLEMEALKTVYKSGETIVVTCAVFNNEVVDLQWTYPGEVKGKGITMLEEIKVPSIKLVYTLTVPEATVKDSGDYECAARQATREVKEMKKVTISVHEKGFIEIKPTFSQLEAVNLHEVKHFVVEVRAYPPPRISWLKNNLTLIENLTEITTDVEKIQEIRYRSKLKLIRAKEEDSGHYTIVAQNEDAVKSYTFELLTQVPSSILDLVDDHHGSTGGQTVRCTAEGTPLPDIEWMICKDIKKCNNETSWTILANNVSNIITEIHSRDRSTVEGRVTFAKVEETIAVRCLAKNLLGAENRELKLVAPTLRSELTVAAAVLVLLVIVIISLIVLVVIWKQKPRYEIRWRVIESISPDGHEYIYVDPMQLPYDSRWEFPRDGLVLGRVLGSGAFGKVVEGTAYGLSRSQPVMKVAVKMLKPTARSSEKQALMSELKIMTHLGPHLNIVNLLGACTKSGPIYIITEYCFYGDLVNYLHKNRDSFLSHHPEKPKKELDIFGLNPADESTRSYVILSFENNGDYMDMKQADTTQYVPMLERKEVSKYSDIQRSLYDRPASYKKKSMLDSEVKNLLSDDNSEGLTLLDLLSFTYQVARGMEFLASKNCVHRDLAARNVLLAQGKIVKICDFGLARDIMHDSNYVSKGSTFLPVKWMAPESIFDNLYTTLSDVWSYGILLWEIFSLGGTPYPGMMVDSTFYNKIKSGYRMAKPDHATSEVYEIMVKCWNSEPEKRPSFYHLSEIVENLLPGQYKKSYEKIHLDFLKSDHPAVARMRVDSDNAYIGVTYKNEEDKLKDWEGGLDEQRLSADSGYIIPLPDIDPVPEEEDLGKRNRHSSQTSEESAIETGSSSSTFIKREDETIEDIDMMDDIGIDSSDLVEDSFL
Assay: Kinase panel enzymatic inhibition assay (Nanosyn)
Assay type: biochemical
Conditions: compound 5 μM; ATP at Km; 30-minute pre-incubation
RECORDED ENDPOINT: inhibition at 5 µM

Recorded inhibition at 5 µM, per entry:
>>> result("Cc1ccc(NC(=O)c2cc(S(C)(=O)=O)n(-c3ccc(F)cc3)n2)cc1C#Cc1cnc2cccnn12")
"< 79%"
>>> result("CCOC(=O)Nc1cn2nc(Nc3cc(NC(=O)c4cc(S(C)(=O)=O)n(-c5ccc(F)cc5)n4)ccc3C)ccc2n1")
"≥ 95%"
>>> result("Cc1ccc(NC(=O)c2cc(S(C)(=O)=O)n(-c3ccc(F)cc3)n2)cc1Nc1ccc2ncn(C)c(=O)c2c1")
"< 79%"
>>> result("Cc1ccc(NC(=O)c2cc([S+](C)[O-])n(-c3ccc(F)cc3)n2)cc1-c1cc(OCCO)nc(N2CCOCC2)c1 (stereo not shown)")
"< 79%"
>>> result("Cc1ccc(NC(=O)c2cc([S+](C)[O-])n(-c3ccc(F)cc3)n2)cc1C#Cc1cnc2cccnn12 (stereo not shown)")
"≥ 95%"

inhibition at 5 µM of CSc1cc(C(=O)Nc2cc(Oc3ccnc(C(=O)NC4CNC4)c3)ccc2F)nn1-c1ccc(F)cc1 , assay on PDGFRa (Homo sapiens), is < 79%

inhibition at 5 µM of Cc1ccc(NC(=O)c2cc([S+](C)[O-])n(-c3ccc(F)cc3)n2)cc1-c1cc(N2CCOCC2)c(=O)n(C)c1 (stereo not shown) , assay on PDGFRa (Homo sapiens), is < 79%

###

Target: PDGFRb (Homo sapiens, UniProt P09619)
Construct: Nanosyn (contract laboratory that ran the panel)
Sequence (P09619 33-1106): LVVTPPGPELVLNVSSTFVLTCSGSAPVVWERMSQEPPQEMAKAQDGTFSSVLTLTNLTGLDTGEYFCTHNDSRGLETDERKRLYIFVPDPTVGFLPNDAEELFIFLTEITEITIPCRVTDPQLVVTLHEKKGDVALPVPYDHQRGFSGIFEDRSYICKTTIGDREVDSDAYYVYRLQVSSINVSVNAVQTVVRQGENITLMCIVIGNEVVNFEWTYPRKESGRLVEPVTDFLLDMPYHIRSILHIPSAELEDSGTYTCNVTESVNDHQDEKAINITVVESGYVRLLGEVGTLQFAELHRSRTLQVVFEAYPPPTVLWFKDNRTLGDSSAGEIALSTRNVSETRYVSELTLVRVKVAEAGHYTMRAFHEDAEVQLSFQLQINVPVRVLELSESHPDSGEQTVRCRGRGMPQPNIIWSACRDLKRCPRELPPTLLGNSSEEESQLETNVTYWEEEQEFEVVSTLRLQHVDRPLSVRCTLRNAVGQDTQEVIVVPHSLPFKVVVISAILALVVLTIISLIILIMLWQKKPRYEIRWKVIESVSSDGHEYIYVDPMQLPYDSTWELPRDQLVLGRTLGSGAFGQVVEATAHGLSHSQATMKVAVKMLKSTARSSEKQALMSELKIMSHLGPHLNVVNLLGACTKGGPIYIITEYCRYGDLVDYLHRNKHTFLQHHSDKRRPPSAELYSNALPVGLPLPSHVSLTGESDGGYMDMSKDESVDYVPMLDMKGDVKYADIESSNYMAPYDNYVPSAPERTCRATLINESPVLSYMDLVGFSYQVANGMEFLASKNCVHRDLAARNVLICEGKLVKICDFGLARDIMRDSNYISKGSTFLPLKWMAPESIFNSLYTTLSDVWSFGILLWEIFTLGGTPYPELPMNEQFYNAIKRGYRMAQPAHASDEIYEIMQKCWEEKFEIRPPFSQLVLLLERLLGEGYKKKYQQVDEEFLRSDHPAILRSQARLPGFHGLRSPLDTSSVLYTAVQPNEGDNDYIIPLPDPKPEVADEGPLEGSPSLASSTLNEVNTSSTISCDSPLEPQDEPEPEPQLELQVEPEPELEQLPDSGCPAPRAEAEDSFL
Assay: Kinase panel enzymatic inhibition assay (Nanosyn)
Type: biochemical
Settings: compound 5 μM; ATP at Km; 30-minute pre-incubation
# inhibition at 5 µM per record follows

>>> result("Cc1ccc(NC(=O)c2cc(S(C)(=O)=O)n(-c3ccc(F)cc3)n2)cc1Nc1ccc2ncn(C)c(=O)c2c1 [Ex4]")
"80 to 89%"

The molecule identified as CCOC(=O)Nc1cn2nc(Nc3cc(NC(=O)c4cc([S+](C)[O-])n(-c5ccc(F)cc5)n4)ccc3C)ccc2n1 (stereo not shown) [Ex18] registered its inhibition at 5 µM at 90 to 94%

The molecule identified as CNC(=O)c1cc(Oc2ccc(F)c(NC(=O)c3cc([S+](C)[O-])n(-c4ccc(F)cc4)n3)c2)ccn1 (stereo not shown) [Ex7] registered its inhibition at 5 µM at < 79%

The molecule identified as CCOC(=O)Nc1cn2nc(Nc3cc(NC(=O)c4cc(S(C)(=O)=O)n(-c5ccc(F)cc5)n4)ccc3C)ccc2n1 [Ex15] registered its inhibition at 5 µM at ≥ 95%

###

Target: YES (Homo sapiens)
Construct: Nanosyn (contract laboratory that ran the panel)
Sequence (P07947 whole entry): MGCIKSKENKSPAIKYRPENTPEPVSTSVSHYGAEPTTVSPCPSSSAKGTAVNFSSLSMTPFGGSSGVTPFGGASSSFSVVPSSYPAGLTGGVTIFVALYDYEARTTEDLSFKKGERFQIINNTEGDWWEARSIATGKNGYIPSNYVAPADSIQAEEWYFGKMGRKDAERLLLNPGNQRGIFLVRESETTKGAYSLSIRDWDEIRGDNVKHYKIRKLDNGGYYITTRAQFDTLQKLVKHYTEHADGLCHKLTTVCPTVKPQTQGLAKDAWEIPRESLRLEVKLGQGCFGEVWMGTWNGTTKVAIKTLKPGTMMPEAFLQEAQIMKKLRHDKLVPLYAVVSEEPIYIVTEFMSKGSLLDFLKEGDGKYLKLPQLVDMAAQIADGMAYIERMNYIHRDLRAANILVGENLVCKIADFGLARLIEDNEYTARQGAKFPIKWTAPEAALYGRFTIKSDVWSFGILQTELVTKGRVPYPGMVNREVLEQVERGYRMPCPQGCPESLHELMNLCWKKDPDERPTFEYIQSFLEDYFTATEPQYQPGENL
Assay: Kinase panel enzymatic inhibition assay (Nanosyn)
Type: biochemical
Details: compound 5 μM; ATP at Km; 30-minute pre-incubation
# inhibition at 5 µM per record follows

Recorded inhibition at 5 µM, per entry:
>>> result("CNC(=O)c1cc(Oc2ccc(NC(=O)c3cc(S(C)(=O)=O)n(-c4ccc(F)cc4)n3)c(F)c2)ccn1 [Ex17]")
"< 79%"
>>> result("CSc1cc(C(=O)Nc2cc(Oc3ccnc(C(=O)NC4CNC4)c3)ccc2F)nn1-c1ccc(F)cc1 [Ex8]")
"< 79%"
>>> result("CCOC(=O)Nc1cn2nc(Nc3cc(NC(=O)c4cc(S(C)(=O)=O)n(-c5ccc(F)cc5)n4)ccc3C)ccc2n1 [Ex15]")
"≥ 95%"
>>> result("Cc1ccc(NC(=O)c2cc([S+](C)[O-])n(-c3ccc(F)cc3)n2)cc1-c1cc(OCCO)nc(N2CCOCC2)c1 (centres unmarked) [Ex10]")
"< 79%"
>>> result("Cc1ccc(NC(=O)c2cc(S(C)(=O)=O)n(-c3ccc(F)cc3)n2)cc1-c1cc(N2CCOCC2)c(=O)n(C)c1 [Ex12]")
"< 79%"
>>> result("Cc1ccc(NC(=O)c2cc([S+](C)[O-])n(-c3ccc(F)cc3)n2)cc1-c1cc(N2CCOCC2)c(=O)n(C)c1 (centres unmarked) [Ex11]")
"< 79%"
>>> result("CNC(=O)c1cc(Oc2ccc(F)c(NC(=O)c3cc([S+](C)[O-])n(-c4ccc(F)cc4)n3)c2)ccn1 (centres unmarked) [Ex7]")
"< 79%"
>>> result("Cc1ccc(NC(=O)c2cc([S+](C)[O-])n(-c3ccc(F)cc3)n2)cc1C#Cc1cnc2cccnn12 (centres unmarked) [Ex6]")
"80 to 89%"
>>> result("CCOC(=O)Nc1cn2nc(Nc3cc(NC(=O)c4cc([S+](C)[O-])n(-c5ccc(F)cc5)n4)ccc3C)ccc2n1 (centres unmarked) [Ex18]")
"90 to 94%"
>>> result("Cc1ccc(NC(=O)c2cc(S(C)(=O)=O)n(-c3ccc(F)cc3)n2)cc1-c1cc(OCCO)nc(N2CCOCC2)c1 [Ex9]")
"< 79%"

The molecule identified as Cc1ccc(NC(=O)c2cc(S(C)(=O)=O)n(-c3ccc(F)cc3)n2)cc1Nc1nccc(-c2cccnc2N)n1 [Ex13] registered its inhibition at 5 µM at < 79%

The molecule identified as Cc1ccc(NC(=O)c2cc(S(C)(=O)=O)n(-c3ccc(F)cc3)n2)cc1Nc1ccc2ncn(C)c(=O)c2c1 [Ex4] registered its inhibition at 5 µM at < 79%

The molecule identified as Cc1ccc(NC(=O)c2cc(S(C)(=O)=O)n(-c3ccc(F)cc3)n2)cc1C#Cc1cnc2cccnn12 [Ex14] registered its inhibition at 5 µM at < 79%

The molecule identified as Cc1ccc(NC(=O)c2cc([S+](C)[O-])n(-c3ccc(F)cc3)n2)cc1Nc1ccc2ncn(C)c(=O)c2c1 (centres unmarked) [Ex5] registered its inhibition at 5 µM at < 79%
